src = paper PMC3349712

# target-system: DipA (Borreliella burgdorferi)
# Construct: native protein from outer membrane fraction of B. burgdorferi B31 delta-p66, hydroxyapatite chromatography in Genapol, untagged; predicted 20-residue signal peptide removed; 36 kDa; minor truncated OspA/OspB in fraction
# Sequence (O51379 entry or part of it): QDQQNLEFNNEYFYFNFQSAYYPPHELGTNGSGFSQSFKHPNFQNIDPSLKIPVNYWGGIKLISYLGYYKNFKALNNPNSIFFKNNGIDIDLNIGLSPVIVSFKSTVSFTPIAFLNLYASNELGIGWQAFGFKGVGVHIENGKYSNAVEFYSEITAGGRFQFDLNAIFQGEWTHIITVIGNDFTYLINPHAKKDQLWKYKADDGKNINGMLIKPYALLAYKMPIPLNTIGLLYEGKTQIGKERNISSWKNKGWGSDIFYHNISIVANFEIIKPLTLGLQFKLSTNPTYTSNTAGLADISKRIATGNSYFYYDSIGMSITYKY
# assay-method-text: biochemical
Doc: threshold 800 µM (exclusive). Items with Kd beneath it return rule met; others return rule not met.

1. O=C(O)CCC(=O)C(=O)O [2-Oxoglutarate] :: rule met
2. O=C(O)CCC(=O)O [Succinate] :: rule met
3. CC(=O)C(=O)O [Pyruvate] :: rule not met
4. N[C@@H](CC(=O)O)C(=O)O [Aspartate] :: rule met
5. O=C(O)/C=C/C(=O)O [Fumarate] :: rule not met
6. O=C(O)/C=C\C(=O)O [Maleate] :: rule met
7. O=C(O)C[C@H](O)C(=O)O [Malate] :: rule met
8. O=C(O)CC(=O)C(=O)O [Oxaloacetate] :: rule met
9. O=C(O)CC(O)(CC(=O)O)C(=O)O [Citrate] :: rule met
10. O=C(O)c1ccccc1C(=O)O [Phthalate] :: rule met
